# Lookup of reported TGI keyed by entry
test system: SNB-75 CNS; experiment: NCI tumour cell line growth inhibition, 48 h
Field format: number, assumed µM, no unit text.

Here are 5 molecules together with their reported answers.
molecule	TGI (µM)
Brc1ccc2c(c1)[C@H]1CCc3c([nH]c4ccccc34)[C@H]1N2	35.7
O=c1[nH]nc(Nc2ccccc2)c2nnn(Cc3ccccc3)c12	85.3
Cc1cc(C)c2c(=O)n(CC(O)CN3CCN(c4ncccn4)CC3)sc2n1 (stereo not given)	28.4
COc1cc(C2CC(c3ccc(C)cc3)=NN2C(C)=O)ccc1Oc1ccnc2cc(Cl)ccc12 (stereo not given)	5.93
c1ccc2c3c(c(N4CCNCC4)nc2c1)CCCC3	27

[ask] Param request: TGI | system SNB-75 CNS | item CCCCC#Cc1c(I)n(C2OC(CO[Si](C)(C)C(C)(C)C)C3OC(C)(C)OC32)c(=O)[nH]c1=O (stereo not given)
[reply] 24.9

[ask] Param request: TGI | system SNB-75 CNS | item N=C(N)c1ccc(-c2ccc(-c3ccco3)o2)cc1
[reply] 23.2

[ask] Param request: TGI | system SNB-75 CNS | item COC1=C(NC(C)=O)C(=O)c2nc3n(c2C1=O)CCC3
[reply] 41.2

The measurements presented in this section are drawn from PubChem BioAssay (NCI).
